Biological target: Iodotyrosine deiodinase [1-228] (Haliscomenobacter hydrossis)
Sequence (F4KU78 whole entry): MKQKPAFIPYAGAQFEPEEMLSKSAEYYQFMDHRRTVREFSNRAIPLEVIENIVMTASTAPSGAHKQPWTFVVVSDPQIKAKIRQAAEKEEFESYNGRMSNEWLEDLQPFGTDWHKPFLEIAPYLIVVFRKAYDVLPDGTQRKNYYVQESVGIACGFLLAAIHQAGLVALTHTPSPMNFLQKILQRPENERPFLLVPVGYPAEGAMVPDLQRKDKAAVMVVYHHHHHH
Kd less than 20 µM is criterion met; Kd greater than or equal to 20 µM is criterion not met.

# count of solved cases: 3
O=C(O)c1ccc(O)c(I)c1 [4-Hydroxy-3-iodobenzoic acid (2IPCOOH)] ... criterion not met
N#Cc1ccc(O)c(I)c1 ... criterion met
N[C@@H](Cc1ccc(O)c(I)c1)C(=O)O ... criterion met

Kd strictly < 20 µM for this compound? Nc1ccc(O)c(I)c1 criterion not met

Could you please tell me whether Kd recorded for Oc1ccccc1I is less than 20 µM? criterion not met

Every entry's value here was drawn from BindingDB's records for doi:10.1021/acs.biochem.6b01308.
